assay name: soluble on expression in E. coli; label from the status in PepcDB or PDB records
measured metric: soluble on expression in E. coli

Below, 6 sequences whose answers are already recorded.
Incoming: For the sequence MHRPEAEKWLRRFERAPDARARLVCLPHAGGSASFFFPLAKALAPAVEVLAVQYPGRQDRRHEPPVDSIGGLTNRLLEVLRPFGDRPLALFGHAMGAIIGYELALRMPEAGLPAPVHLFASGRRAPSRYRDDDVRGASDERLVAELRKLGGSDAAMLADPELLAMVLPAIRSDYRAVETYRHEPGRRVDCPVTVFTGDHDPRVSVGEARAWEEHTTGPADLRVLPGGHFFLVDQAAPMIATMTEKLAGPALTGSTGGNSLEHHHHHH , give its measured soluble on expression in E. coli value.
Outgoing: soluble

Incoming: For the sequence MVDLYQLFKTRTPIIGVVHLLPLPTSPRWGGSLKAVIDRAEQEATALASGGVNGIIVENFFDAPFTKNQVDPAVVSAMTVVVQRIQNLVTLPVGLNVLRNDGKSAMAIASCVRAQFIRVNVLTGVMATDQGLIEGEAHELLRYRRELGSDVQILADVLVKHARPLSSPNLTVAVKDTIERGLADAVILSGWATGSPPNQEDLELACDAANGTPVFIGSGASWENIATLLQAANGVIVSSSLKRHGRIEQPIDPIRVSQFVEAAHRSWNSKGESKSVSSITIHSLEHHHHHH , give its measured soluble on expression in E. coli value.
Outgoing: not soluble

Incoming: For the sequence MEEFVNPCKIKVIGVGGGGSNAVNRMYEDGIEGVELYAINTDVQHLSTLKVPNKIQIGEKVTRGLGAGAKPEVGEEAALEDIDKIKEILRDTDMVFISAGLGGGTGTGAAPVIAKTAKEMGILTVAVATLPFRFEGPRKMEKALKGLEKLKESSDAYIVIHNDKIKELSNRTLTIKDAFKEVDSVLSKAVRGITSIVVTPAVINVDFADVRTTLEEGGLSIIGMGEGRGDEKADIAVEKAVTSPLLEGNTIEGARRLLVTIWTSEDIPYDIVDEVMERIHSKVHPEAEIIFGAVLEPQEQDFIRVAIVATDFPEEKFQVGEKEVKFKVIKKLHHHHHH , give its measured soluble on expression in E. coli value.
Outgoing: soluble

Incoming: For the sequence MAVGSVATLATEPGEDAFRKLFRFYRQSRPGTADLEGVIDFSAAHAARGKGPGAQKVIKSQLNVSSVSEQNAYRAGLQPVSKWQAYGLKGYPGFIFIPNPFLPGYQWHWVKQCLKLYSQKPNVCNLDKHMSKEETQDLWEQSKEFLRYKEATKRRPRSLLEKLRWVTVGYHYNWDSKKYSADHYTPFPSDLGFLSEQVAAACGFEDFRAEAGILNYYRLDSTLGIHVDRSELDHSKPLLSFSFGQSAIFLLGGLQRDEAPTAMFMHSGDIMIMSGFSRLLNHAVPRVLPNPEGEGLPHCLEAPLPAVLPRDSMVEPCSMEDWQVCASYLKTARVNMTVRQVLATDQNFPLEPIEDEKRDISTEGFCHLDDQNSEVKRARINPHSLEHHHHHH , give its measured soluble on expression in E. coli value.
Outgoing: soluble

Incoming: For the sequence KQKVINVKEVRLSPTIEEHDFNTKLRNARKFLEKGDKVKATIRFKGRAITHKEIGQRVLDRLSEACADIAVVETAPKMDGRNMFLVLAPKNDNK , give its measured soluble on expression in E. coli value.
Outgoing: soluble

Incoming: For the sequence MGSDKIHHHHHHMNYRTIAKNGSTEETIKKSRFICQAKRITNEAEGRDFITQIKKEHYKARHSCSAMIIGENSDIKRSSDDGEPSGTAGIPMLSVLEKKQLTNLVLVVTRYFGGIKLGTGGLIRAYSGGAANTLKALGIVEVKKQTGLRLELTYPQYQTFANFLKEHQLQEYDTDFSVTVNTTIYVDKKDIEFTLDQLTEFYQGKLKSHVAGNQIIEVPVI , give its measured soluble on expression in E. coli value.
Outgoing: not soluble

// next entry
Incoming: For the sequence MAAGVAAWLPFARAAAIGWMPVASGPMPAP , give its measured soluble on expression in E. coli value.
Outgoing: soluble

###

assay name: soluble on expression in E. coli; label from the status in PepcDB or PDB records
measured metric: soluble on expression in E. coli

Incoming: For the sequence MTYIIREMKQEDIHAVQSVAKIAWHDTYEGIIPREIQDSFLDEAYSDEKMKYRLKNTHLFVAEEEGEVIGFANFSPVRLQNEAELGAIYLLPDQQGKGIGSALLQRGIKALNGIRKLYIHVEAANEKGKRFYEAKGFAELEQFEEDFEGHMMQTVRMVLYV , give its measured soluble on expression in E. coli value.
Outgoing: not soluble

Incoming: For the sequence MTYETVERSKKSQVNLNNKEPFSVLLLGIDTGDDGRVEQGRSDTTIVATVNPRDKQTTLVSLARDTYVDIPGQGKQDKLNHAYAFGGASLAMDTVENYLNIPINHYVSINMAGLKELVNAVGGIEVNNNLTFSQDGYDFTIGKISLDGEQALSYSRMRYEDPNGDYGRQERQRKVIEGIVQKVLSLNSVSNYQEILTAVSDNMKTDLSFDDMKKIALDYRSAFGKVKQDQLQGTGFMQDGVSYQRVDEQELTRVQQELKNQLNTKLEHHHHHH , give its measured soluble on expression in E. coli value.
Outgoing: soluble

Incoming: For the sequence ASEEEKAWLMASRQQLAKETSNFGFSLLRKISMRHDGNMVFSPFGMSLAMTGLMLGATGPTETQIKRGLHLQALKPTKPGLLPSLFKGLRETLSRNLELGLTQGSFAFIHKDFDVKETFFNLSKRYFDTECVPMNFRNASQAKRLMNHYINKETRGKIPKLFDEINPETKLILVDYILFKGKWLTPFDPVFTEVDTFHLDKYKTIKVPMMYGAGKFASTFDKNFRCHVLKLPYQGNATMLVVLMEKMGDHLALEDYLTTDLVETWLRNMKTRNMEVFFPKFKLDQKYEMHELLRQMGIRRIFSPFADLSELSATGRNLQVSRVLQRTVIEVDERGTEAVAGILSEITAYSMPPVIKVDRPFHFMIYEETSGMLLFLGRVVNPTLL , give its measured soluble on expression in E. coli value.
Outgoing: soluble

Incoming: For the sequence MIGKRFFQTTSKKIAFAFDIDGVLFRGKKPIAGASDALKLLNRNKIPYILLTNGGGFSERARTEFISSKLDVDVSPLQIIQSHTPYKSLVNKYSRILAVGTPSVRGVAEGYGFQDVVHQTDIVRYNRDIAPFSGLSDEQVMEYSRDIPDLTTKKFDAVLVFNDPHDWAADIQIISDAINSENGMLNTLRNEKSGKPSIPIYFSNQDLLWANPYKLNRFGQGAFRLLVRRLYLELNGEPLQDYTLGKPTKLTYDFAHHVLIDWEKRLSGKIGQSVKQKLPLLGTKPSTSPFHAVFMVGDNPASDIIGAQNYGWNSCLVKTGVYNEGDDLKECKPTLIVNDVFDAVTKTLEKYA , give its measured soluble on expression in E. coli value.
Outgoing: soluble

// next entry
Incoming: For the sequence MTEAQLTLPTTKLSPTQKTQFIKLEKKLRRNVGQAIAQYNMIEDGDKVMVCLSGGKDSYAMLSILMLLKESAPIHFDIIAVNLDQKQPGFPEHILPEYLDKLGIEYHIVEEDTYGIVKEKVPEGKTTCSLCSRLRRAVLYKAAKKIGATKIALGHHRDDMIETLMLNMFYGGKMKAMPAKLVSDNGEHVVIRPLAFCKESELIQYSELKHFPIIPCNL , give its measured soluble on expression in E. coli value.
Outgoing: not soluble

###

assay name: soluble on expression in E. coli; label from the status in PepcDB or PDB records
measured metric: soluble on expression in E. coli

Incoming: For the sequence MGSDKIHHHHHHMKIDELIALAAEQPTRISRRSGVSRSTLKRVGDGTSEPTLSTLREVALALGLDIKVAAHHACDPFAAAAARTLIDASVPENPHNQEILAWLHRFERWNINDPLTLVSEAGTLQGITHRQDAQFVKLNPRGIAELPELFQQHKTKWALSGAAAATVIMGQIVLGNSIVWHEPAHDLDVSALGTIVDVAEDADLILLPATVTELVGSYTQDRLNFVAPVQLVIDLHSLHMFEEADYLTSGWR , give its measured soluble on expression in E. coli value.
Outgoing: not soluble

Incoming: For the sequence QRRQMEMQSVNLVHEALSNQRLELFAQRVMNLQSPESLMYFEILVRIRDAQGNYVSPAIFIPASERYNIAHWIDKQVINQALEWFEQRPDVVEKLGRCSINLSGQSMGNQEFIDFLFERLKNSTMPCEKICLEITETAAMGNLDQAIDFFTRAKSLGCMIALDDFGSGLSSFGYLKKLPVDIVKIDGLFVRDIDVNEMDRVMVRSINDLAKQLGKVTVAEFVENEQVMQHLIDLGVDYGQGYGIGHPKPLAELVENLSSL , give its measured soluble on expression in E. coli value.
Outgoing: not soluble

Incoming: For the sequence MNYRHIYHAGNFADVFKHIIVTRIIEYLKRKEKAFRVIDTHAGIGIYDLSSLEAHKTGEWREGVYQLLSTPIPEDLKALLYPWCNIIETLNKGKKDILFYPGSPVLIRQLLRKQDRLTAIELHREDYHILAKNFAGDYQTKVLHLNGWLSLNAHLPPKEKRGFILVDPPFEKPGEFSRLIEGLMKAYRRFSGGIYALWYPVKYDKEIENFLHALHQTGIPKILQLEMRIRKSSIPPTMNGSGMILINPPYLLEEEIKKLSPFLIARLGQDKNAQITHKWIQKEQLLC , give its measured soluble on expression in E. coli value.
Outgoing: not soluble

Incoming: For the sequence MMSTPPQNTRPVFSVDGLWKVFGPKAERVPADPELAALSAAELSERTGCTAAVRDVSFDVHKGEVFVVMGLSGSGKSTLVRCLTRLIEPTAGTIAIDGEDVRAMDRTRLRELRRHRASMVFQHFGLLPHRTVLDNVAYGLEIQGLGKAERRERAAEVVAKVGLEGMEQRKPGQLSGGQQQRVGLARALAVDPEVLLFDEPFSALDPLIRRDMQEEVVRLHREEGRTMVFITHDLNEALRLGDRIALMRDGRVVQLGTPEEIVGSPADDYVREFVRDVPREQVMTVRTAMRAASAEEAGSGPAVAPDATVSEAIEAVARAGSPARVVDSGRCVGVVDSEALLDVVAGVGASGPAPAVTAVPPFEPSRDFGNAGAGAAEAAPGDVTGEEVALEHHHHHH , give its measured soluble on expression in E. coli value.
Outgoing: soluble

Incoming: For the sequence MSRPRKRLAGTSGSDKGLSGKRTKTENSGEALAKVEDSNPQKTSATKNCLKNLSSHWLMKSEPESRLEKGVDVKFSIEDLKAQPKQTTCWDGVRNYQARNFLRAMKLGEEAFFYHSNCKEPGIAGLMKIVKEAYPDHTQFEKNNPHYDPSSKEDNPKWSMVDVQFVRMMKRFIPLAELKSYHQAHKATGGPLKNMVLFTRQRLSIQPLTQEEFDFVLSLEEKEPS , give its measured soluble on expression in E. coli value.
Outgoing: soluble

Would you mind giving soluble on expression in E. coli for every sequence in the list below?
1. MSLYKILLADDERIILDGMAGIIEWESLGASLIGKAQNGHEAYEKIVHKQPHIVITDVKMPGMDGLELIKKVSAVSPSVQFIVLSGFGEFEYAKEAMKYGVKHYLLKPCNEQQIISSLEEIIAELKRQDVHKKKTAHLKHELDHIRSFAADQYLEGLIAGVAQLSPPPSLAGKKIRLLILKGEQSIDAAAREALGSALTAVCSSGEWTVLAVEENAAEKVAEVFADRKMAISQAGELRHAGQLFRDTAEASGDLHGSAVISKMIRLIADELGNPNLSLKWAAKDMLFMNPDYLGKLFKQETGEKFSQYVTRVRLEHAMKQMKIRRDVSVSEIAEEIGFGDNPKYFSLVFKKYTGLTPSEFRRKQGGASAGEGHHHHHH
2. MSVQSITESNQPPVICLMGPTASGKTALAMALKDALPCDIVSVDSALIYRDMDIGTAKPTKSELVQYPHRLIDLRDASESYSAADFCRDALVEIAEIRSNGRIPLLVGGTMMYFKSLIEGISPLPTANPEIRQAIEAEALSKGWQAMHDQLAEIDPVSAERIHPNDPQRITRALEVYRLTSNTLTQLTQIKGAKLAGDVLQLAITPRERSTLHERIALRYQQMIDLGFEQEVIKLKSRDDLHQDLPSIRCVGYRQMWQHLEGEFDHDEMIFRGVCATRQLAKRQLTWLRNWPDLHWLTTDDKTNLAQVLSLLEAKH
3. SLDSEKVKVLSIEEDNQAEILKELGLPANASYYRIKRVRYSEDTPFLVHITHLPKKLVKEPLSKDLTAYASVYERVRKDFSVDLFSLASVETNEIVFPEDAELLNLLQLSFREPAVKQVKHSYLADGSVAEYIISYKHWKYFKTKIEVEAE
4. MSLSDRWDQTGLKTRVDGVLRSFLDEEAAHLAAVDAALAPVADQLRKAAGHGKRLRAAFCYWGWRAAGQPESDALVRAAASMELVHAAAVVHDDLIDDSRLRHGLPTAHVALEAVLARDGRPDARTAARSLAMLVGDQLMVLAGLLFTTSGLPAAYLARARDLWAVLARELVAGECLEILHTGGPPDTGTSLKVVRYKTAKYTVEHPLLIGGLLAGAAPALRDTYRAYALPLGEAFQLRDDLLGLFGDPERTGKASLDDLRAHRPTALLAETWKAADASQRQWLRRLLGRDDLDATHLHDVRRLMRELNAPQRVEQMIADRVERATRALDGAGTPPHARRALRELAQQATDRTHEGHHHHHH

Outgoing:
soluble
not soluble
soluble
soluble

Would you mind giving soluble on expression in E. coli for every sequence in the list below?
1. MSSRIEQIIDEIDEFIESCKFQPLSATKIIVNKEEIEELLRELRLKTPDEIKRYQKIISNKDAILEDAQSKADAIIADAQAKAQELVTQHEIMQKAYAQANDTINAANKQAQEILDSATQDANSIRLSAITYTDDMMANIGSVLNQTLEDAGGKYKGFIDALQSCLDVVNHNRQELAPQTAQAAAMTGSYHEEPADAPEEDSLLDDLGEE
2. MTELRVYLLIEALQPQFAACLSSPTRARGYPAFAGQSSLIIEVSPALAIHRVTDLALKSAPAMEPGILYTERQFGLLELHADSLEKLNAAGQAILDGMGAKPEDQLKPQILYHDIIENLSDQHAIILNRSREASILVPGVALLIYEMAPALFACVAANEAERAVPRAVINDVQMMGATGRVFMSGSLAEMRLARETITAKLESIPGRQ

Outgoing:
["not soluble", "not soluble"]
